B1: ISL2 (parent)
chain: HYPFLGAMGDHSKKKPGTAMCVGC

Variants of: B1
Test: protein stability index of a GFP-peptide fusion (GPS, HEK-293T) (PSI 1-6); higher = more stable;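 note: lentivirally expressed fusions sorted by FACS into six bins by GFP to DsRed ratio, PSI derived from sequencing read proportions per bin multiplied by bin number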
Settings: c terminus: a fixed tail appended
Label rule, in plain words: protein stability index of 3 and up is class 1, under 3 is class 0.

G6Q = class 0

Then there is this variant:
Query :: Reported protein stability index reaches at least 3 for S12C ?
Result :: class 1

Sourced from the supplement of paper PMC10567573
